assay: qHTS profiling for inhibitors of Plasmodium falciparum proliferation (AID 504749); also: nearly all actives have a fitted effect of over 60% in size;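 as to activity, negative = inhibition: 0% = DMSO vehicle and full inhibition = artemisinin control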; details: P. falciparum in erythrocytes, SYBR Green DNA, 72 h; at 28.7 µM (top of the series); parasite line B
Records with an inconclusive call do not appear.
Tag: true (1) if measured activity, negative = inhibition is not below 10%, false (0) if it is.

- COMPOUND: "NC(=O)C(=O)N/N=C/c1ccc([N+](=O)[O-])o1"
  LABEL VALUE: "false (0)"
- COMPOUND: "Cc1cc(=O)n(-c2ccccc2)n1C"
  LABEL VALUE: "true (1)"
- COMPOUND: "C[N+]1(CCCCC[N+]2(C)CCCC2)CCCC1"
  LABEL VALUE: "false (0)"

As a next step, examine the compound that follows.
stdin: Does the compound NC(CO)(CO)CO have recorded activity, negative = inhibition that is 10% or more?
stdout: false (0)

* * *

tested on: AS120; experiment: qHTS profiling for inhibitors of Plasmodium falciparum proliferation (AID 504749); also: nearly all actives have a fitted effect of over 60% in size; conditions: P. falciparum in erythrocytes, SYBR Green DNA, 72 h; series mostly up to 28.7 µM
Records with an inconclusive call do not appear. The source made the active and inactive calls. Calls come from the whole dose curve; as a rule, active = well fitted inhibition curve with a large enough effect; inconclusive = small, poorly fitted or top-dose-only effect; inactive = flat fitted curve, though single readings scatter.
Reply using exactly one outcome from yes = active, no = inactive

- QUERY SMILES: "O=C(OCCOCCO)c1ccccc1Nc1cccc(C(F)(F)F)c1"
  LABEL VALUE: "no"
- QUERY SMILES: "C[C@]12CC[C@@H]3c4ccc(O)cc4CC[C@H]3[C@@H]1CC[C@@H]2O"
  LABEL VALUE: "no"
- QUERY SMILES: "C[C@]12CCC(=O)C=C1CC[C@H]1[C@@H]3CC[C@](O)(C(=O)CO)[C@@]3(C)C[C@H](O)[C@@]12F"
  LABEL VALUE: "no"
- QUERY SMILES: "Cc1cccn2c(=O)c(-c3nnn[nH]3)cnc12"
  LABEL VALUE: "no"
- QUERY SMILES: "CN(C)CCCOc1nn(Cc2ccccc2)c2ccccc12"
  LABEL VALUE: "no"
- QUERY SMILES: "CC1(C)CCC(NC(=O)[C@@H](N)CCC(=O)O)CC1"
  LABEL VALUE: "no"
- QUERY SMILES: "CC(=O)Nc1c(I)cc(I)c(C(=O)O)c1I"
  LABEL VALUE: "no"
- QUERY SMILES: "NC(CO)(CO)CO"
  LABEL VALUE: "no"
- QUERY SMILES: "COc1ccc(CN2CCN(C(c3ccc(F)cc3)c3ccc(F)cc3)CC2)c(OC)c1OC"
  LABEL VALUE: "yes"
- QUERY SMILES: "NC(=O)C(=O)N/N=C/c1ccc([N+](=O)[O-])o1"
  LABEL VALUE: "no"

stdin: Hey, what did the test say about CCCN1CCCC[C@H]1C(=O)Nc1c(C)cccc1C ?
stdout: no

stdin: Hey, what did the test say about Cc1ncc(CSSCc2cnc(C)c(O)c2CO)c(CO)c1O ?
stdout: no

stdin: Hey, what did the test say about COc1c2occc2c(OC)c2c(=O)cc(C)oc12 ?
stdout: no

* * *

assay: Primary qHTS for inhibitors of nuclear receptor binding SET domain protein 2 (NSD2) in an isogenic RCH-ACV NSD2 p.E1099K mutant (9B) (AID 1645876); conditions: RCH-ACV (leukaemia line) NSD2 E1099K (9B) viability, CellTiter-Glo, 72 h; series mostly up to 44.9 µM; also: nearly all actives have a fitted effect of over 70% in size
Results filed as inconclusive are left out. Active and inactive are the calls of the source. The call rests on the fitted dose curve; in most records, active means well fitted inhibition curve with a large enough effect; inconclusive means small, poorly fitted or top-dose-only effect; inactive means flat fitted curve, though single readings scatter.
Reply using exactly one outcome from active, inactive

- COMPOUND: "O=C(N/N=C/c1ccccc1O)c1ccncc1"
  LABEL VALUE: "active"
- COMPOUND: "CCCCCCCCCCCCCCNCCO"
  LABEL VALUE: "active"
- COMPOUND: "Cc1cc2c(cc1CC(=O)c1sccc1S(=O)(=O)Nc1onc(C)c1Cl)OCO2"
  LABEL VALUE: "inactive"
- COMPOUND: "COc1c2occc2c(OC)c2c(=O)cc(C)oc12"
  LABEL VALUE: "inactive"

stdin: Hey, what did the test say about c1ccc(CNCCNCc2ccccc2)cc1 ?
stdout: inactive

stdin: Hey, what did the test say about CN(C)CC/C=C1/c2ccccc2COc2ccc(CC(=O)O)cc21 ?
stdout: inactive

stdin: Hey, what did the test say about C[n+]1c2cc(N)ccc2cc2ccc(N)cc21 (tested in a mixture with another compound) ?
stdout: active

stdin: Hey, what did the test say about Cc1ccc(C(=O)C(C)CN2CCCCC2)cc1 (centres undefined) ?
stdout: inactive

stdin: Hey, what did the test say about NC(=O)CC[C@@H]1NC(=O)[C@H](Cc2ccccc2)NC(=O)[C@H](Cc2ccc(O)cc2)NC(=O)CCSSC[C@@H](C(=O)N2CCC[C@H]2C(=O)N[C@@H](CCCN=C(N)N)C(=O)NCC(N)=O)NC(=O)[C@H](CC(N)=O)NC1=O ?
stdout: inactive

stdin: Hey, what did the test say about COc1cc(N)c(Cl)cc1C(=O)NC1CCN(CCCOc2ccc(F)cc2)CC1OC (centres undefined) ?
stdout: active

stdin: Hey, what did the test say about CC1=C(C(=O)OC(C)C)C(c2cccc([N+](=O)[O-])c2)C(C(=O)OC2CN(C(c3ccccc3)c3ccccc3)C2)=C(N)N1 (centres undefined) ?
stdout: inactive

stdin: Hey, what did the test say about COc1cc2c(cc1O)CC[C@@H]1[C@@H]2CC[C@]2(C)[C@@H](O)CC[C@@H]12 ?
stdout: active

stdin: Hey, what did the test say about NCCc1ccn[nH]1 ?
stdout: inactive

stdin: Hey, what did the test say about CCOC(=O)COc1ccc2c(C)c(CCN(CC)CC)c(=O)oc2c1Cl ?
stdout: inactive

* * *

test system: Es-2; test: Primary qHTS to identify gynecologic anti-cancer compounds using libraries of approved drugs and bioactive compounds (AID 1345084); settings: Gynecologic cancer cell panel viability, ATPlite luminescence, 48 h; series mostly up to 57.5 µM; also: % is scaled to controls: 0 for no effect and ±100 for the full control effect; nearly all actives have a fitted effect of over 55% in size
Results filed as inconclusive are left out. Active and inactive are the calls of the source. Calls come from the whole dose curve; as a rule, active = well fitted cell-killing curve with a large enough effect; inconclusive = small, poorly fitted or top-dose-only effect, or effect the other way; inactive = flat fitted curve, though single readings scatter.
READOUT LABEL: outcome

Example results:
- COMPOUND: "Nc1nc2ncc(CNc3ccc(C(=O)N[C@@H](CCC(=O)O)C(=O)O)cc3)nc2c(=O)[nH]1"
  outcome: "inactive"
- COMPOUND: "CC(C)(CO)[C@@H](O)C(=O)NCCCO"
  outcome: "inactive"
- COMPOUND: "CCC(=O)c1c(O)cc(O)cc1O"
  outcome: "inactive"
- COMPOUND: "CCCCCCCCCCCCCCNCCO"
  outcome: "inactive"

stdin: Can you share its outcome? I mean this compound: CN(C/C=C/c1ccccc1)Cc1cccc2ccccc12
stdout: inactive

stdin: Can you share its outcome? I mean this compound: CN=C(NC#N)NCCSCc1csc(N=C(N)N)n1
stdout: inactive

stdin: Can you share its outcome? I mean this compound: Cc1cc(=O)n(-c2ccccc2)n1C
stdout: inactive

stdin: Can you share its outcome? I mean this compound: CN1[C@@H]2CC[C@H]1CC(OC(=O)c1c[nH]c3ccccc13)C2 (stereo partly drawn)
stdout: inactive

stdin: Can you share its outcome? I mean this compound: CC1(C)OC[C@@H](COC(=O)CCc2ccc(OC[C@@H](O)CNCCNC(=O)N3CCOCC3)cc2)O1
stdout: inactive

stdin: Can you share its outcome? I mean this compound: NCCCC[C@H](N[C@@H](CCc1ccccc1)C(=O)O)C(=O)N1CCC[C@H]1C(=O)O
stdout: inactive

* * *

assay: qHTS of pediatric cancer cell lines to identify multiple opportunities for drug repurposing: Primary screen for LAN-5 cells (AID 1347100); settings: LAN-5 neuroblastoma viability, CellTiter-Glo luminescence, 48 h; series mostly up to 46 µM
Results filed as inconclusive are left out. Activity calls are given as the source filed them. The call rests on the fitted dose curve; in most records, active means well fitted cell-killing curve with a large enough effect; inconclusive means small, poorly fitted or top-dose-only effect; inactive means no such curve, though single readings can be large or run the other way.
Reply using exactly one outcome from active, inactive

Field: example entries. Status: answers known.
- COMPOUND: "CC1(C)OC[C@@H](COC(=O)CCc2ccc(OC[C@@H](O)CNCCNC(=O)N3CCOCC3)cc2)O1"
  LABEL VALUE: "inactive"
- COMPOUND: "O=C(O)CNC(=O)c1ccccc1"
  LABEL VALUE: "inactive"
- COMPOUND: "Cc1c(F)c(N2CCNC(C)C2)cc2c1c(=O)c(C(=O)O)cn2C1CC1 (configuration not stated)"
  LABEL VALUE: "inactive"
- COMPOUND: "OC[C@H]1O[C@@H](n2cnc3c(=S)nc[nH]c32)[C@H](O)[C@@H]1O"
  LABEL VALUE: "active"
- COMPOUND: "C#C[C@]1(O)CC[C@H]2[C@@H]3CCC4=CC(=O)CC[C@@H]4[C@H]3CC[C@@]21C"
  LABEL VALUE: "inactive"
- COMPOUND: "NC(=O)CC[C@@H]1NC(=O)[C@H](Cc2ccccc2)NC(=O)[C@H](Cc2ccc(O)cc2)NC(=O)CCSSC[C@@H](C(=O)N2CCC[C@H]2C(=O)N[C@@H](CCCN=C(N)N)C(=O)NCC(N)=O)NC(=O)[C@H](CC(N)=O)NC1=O"
  LABEL VALUE: "inactive"

As a next step, examine the compound that follows.
stdin: Hey, what did the test say about NC[C@H]1O[C@H](O[C@H]2[C@H](O)[C@@H](O[C@H]3O[C@H](CO)[C@@H](O)[C@H](N)[C@H]3O)[C@H](N)C[C@@H]2N)[C@H](N)[C@@H](O)[C@@H]1O ?
stdout: inactive
